GI50 values, listed per item
Tested on: M19-MEL
Assay: NCI tumour cell line growth inhibition, 48 h
Activity calls are given as the source filed them. Rule as the data show it: active = GI50 up to about 1.1 µM and inactive = higher.
measurement_name: GI50

- molecule: "O=C1N=C2Sc3ccc4ccccc4c3N2C1=O"
  measurement_name: "GI50"
  result: "36.1 µM (inactive)"
- molecule: "COc1ccc2c(c1)CCC(OS(=O)(=O)CC13CCC(CC1=O)C3(C)C)C2=O (centres undefined)"
  measurement_name: "GI50"
  result: "34.2 µM (inactive)"
- molecule: "N=C1SCCS1"
  measurement_name: "GI50"
  result: "> 100 µM (inactive)"
- molecule: "CCCCCCCCCCCCCCCCCCOCC(O)CO (centres undefined) [BATILOL]"
  measurement_name: "GI50"
  result: "12 µM (inactive)"

---

In this section, each of the compounds is paired with its reported GI50.
Tested on: OVCAR-4
Test: NCI tumour cell line growth inhibition, 48 h
Activity calls are given as the source filed them. Cut-off read from the data, not from the text of the source: active = GI50 up to about 1.1 µM and inactive = higher.
measurement_name: GI50

- compound: "COc1ccc(/C=C/C(=O)c2ccc(Br)cc2)cc1"
  result: "> 100 µM (inactive)"
- compound: "N#Cc1c(Cl)cccc1Oc1ccc(S(=O)(=O)N/C(=N\\O)Nc2ccc(Cl)cc2)cc1"
  result: "14.8 µM (inactive)"
- compound: "CCOc1ccc(/C=C(\\Cl)c2ccc(OC)c(OC)c2)cc1"
  result: "33.3 µM (inactive)"
- compound: "CN1CCN(C(=S)N(C(=O)c2cccs2)C2CCCCC2)CC1"
  result: "> 100 µM (inactive)"
- compound: "CCCN(CCCC(NC(C)=O)C(=O)NCc1ccccc1)C(=O)NCCCl (stereo unspecified)"
  result: "> 100 µM (inactive)"
- compound: "COC(=O)C1CC/C(=N/C2c3ccccc3-c3ccccc32)N1 (stereo unspecified)"
  result: "> 100 µM (inactive)"

---

System: CAKI-1
Assay: NCI tumour cell line growth inhibition, 48 h
Calls of active or inactive are those of the source. Cut-off read from the data, not from the text of the source: active = GI50 up to about 1.1 µM and inactive = higher.
Outcomes: active, inactive

- compound: "C(#C[C@@]12CCC[C@@H]1NCO2)c1ccc2c(c1)OCO2"
  group: "inactive"
- compound: "O=c1c2cccnc2[nH]c2ccc3[nH]ncc3c12"
  group: "inactive"
- compound: "CCOC(=O)Oc1ccc2[nH]c3c(C)cc(N)c(C)c3c2c1"
  group: "inactive"
- compound: "CN1CCC23c4ccccc4NC1C21CCN(C)C3Nc2ccccc21"
  group: "inactive"
- compound: "O=C1CSC(c2cccc(Cl)c2)N1c1ccc(-n2c(-c3ccccc3)nc3ccccc3c2=O)cc1 (stereo unspecified)"
  group: "inactive"
- compound: "O=C(COC(c1ccc(F)cc1)c1ccc(F)cc1)N1CCN(CCCc2ccccc2)CC1"
  group: "inactive"
- compound: "NS(=O)(=O)OCCCCCCCOS(N)(=O)=O"
  group: "inactive"
- compound: "O=C1C(Cl)=C(N2CCC[C@@H]2CO)C(=O)c2c(O)ccc(O)c21"
  group: "inactive"
- compound: "CC(C)C(/C=C/c1ccccc1)=N\\NC(=S)NN"
  group: "inactive"
- compound: "CCOC(=O)Oc1cc2c(c(OC)c1OC)-c1ccc(SC)c(=O)cc1C(NC(=O)C(F)(F)F)CC2 (stereo unspecified)"
  group: "active"
- compound: "CSc1nc(C)c2c(n1)N(c1ccc(Cl)cc1)CC2"
  group: "inactive"
